# procedure-text: Saturation solubility of fulvestrant in combinations of solvents/detergents (Table 2)
# Type: physicochemical
# recorded-conditions: 50% castor oil, 25% ethanol, 25% Cremophor 40 (% w/v), oil or lipid, thermodynamic from solid, No 9 (% w/v): 50% Castor Oil, 25% Ethanol, 25% Cremophor 40; read-out: Solubility
# Method: To increase solubility, various other solvents, co-solvents, and surfactants were tested. […] Moreover, some solvents also required substantial quantities of emulsifier (e.g., Cremophor™ (hydrogenated castor oil reacted with ethylene oxide)), which is not desirable as an ingredient for injection at the tested concentrations. […]

| compound | u | solubility |
| --- | --- | --- |
| C[C@]12CC[C@@H]3c4ccc(O)cc4C[C@@H](CCCCCCCCC[S+]([O-])CCCC(F)(F)C(F)(F)F)[C@H]3[C@@H]1CC[C@@H]2O (stereo partly shown) [Fulvestrant] | mg/mL | 134 |

----------
# procedure-text: physchem
# recorded-conditions: benzyl benzoate, organic solvent or mixture

| molecule | solubility |
| --- | --- |
| C[C@]12CC[C@@H]3c4ccc(O)cc4C[C@@H](CCCCCCCCC[S+]([O-])CCCC(F)(F)C(F)(F)F)[C@H]3[C@@H]1CC[C@@H]2O (stereo partly shown) | 3900 µg/mL |

----------
# procedure-text: physchem
# recorded-conditions: benzyl alcohol, organic solvent or mixture

| molecule | solubility / mg/mL |
| --- | --- |
| C[C@]12CC[C@@H]3c4ccc(O)cc4C[C@@H](CCCCCCCCC[S+]([O-])CCCC(F)(F)C(F)(F)F)[C@H]3[C@@H]1CC[C@@H]2O (stereo partly shown) [Fulvestrant] | 269 |

----------
# procedure-text: physchem
# recorded-conditions: Cremophor RH40, aqueous with cosolvent or surfactant or cyclodextrin

| compound | solubility |
| --- | --- |
| C[C@]12CC[C@@H]3c4ccc(O)cc4C[C@@H](CCCCCCCCC[S+]([O-])CCCC(F)(F)C(F)(F)F)[C@H]3[C@@H]1CC[C@@H]2O (stereo partly shown) [Fulvestrant] | 47.2 mg/mL |

----------
# procedure-text: physchem
# recorded-conditions: olive oil, oil or lipid

| compound | u | solubility |
| --- | --- | --- |
| C[C@]12CC[C@@H]3c4ccc(O)cc4C[C@@H](CCCCCCCCC[S+]([O-])CCCC(F)(F)C(F)(F)F)[C@H]3[C@@H]1CC[C@@H]2O (stereo partly shown) | µg/mL | 400 |

----------
# procedure-text: Saturation solubility of fulvestrant in combinations of solvents/detergents (Table 2)
# Format: physicochemical
# recorded-conditions: 75% oleic acid, 25% castor oil (% w/v), oil or lipid, thermodynamic from solid, No 5 (% w/v): 75% Oleic Acid, 25% Castor Oil; read-out: Solubility

| compound | solubility / mg/mL |
| --- | --- |
| C[C@]12CC[C@@H]3c4ccc(O)cc4C[C@@H](CCCCCCCCC[S+]([O-])CCCC(F)(F)C(F)(F)F)[C@H]3[C@@H]1CC[C@@H]2O (stereo partly shown) | 15.5 |

----------
# procedure-text: physchem
# recorded-conditions: ricinoleic acid, oil or lipid

| compound | solubility [mg/mL] |
| --- | --- |
| C[C@]12CC[C@@H]3c4ccc(O)cc4C[C@@H](CCCCCCCCC[S+]([O-])CCCC(F)(F)C(F)(F)F)[C@H]3[C@@H]1CC[C@@H]2O (stereo partly shown) | 26 |
